test-system: GABA-A receptor; alpha-2/beta-3/gamma-2 (Homo sapiens, UniProt P18507+P28472+P47869)
Sequence (P18507 whole entry): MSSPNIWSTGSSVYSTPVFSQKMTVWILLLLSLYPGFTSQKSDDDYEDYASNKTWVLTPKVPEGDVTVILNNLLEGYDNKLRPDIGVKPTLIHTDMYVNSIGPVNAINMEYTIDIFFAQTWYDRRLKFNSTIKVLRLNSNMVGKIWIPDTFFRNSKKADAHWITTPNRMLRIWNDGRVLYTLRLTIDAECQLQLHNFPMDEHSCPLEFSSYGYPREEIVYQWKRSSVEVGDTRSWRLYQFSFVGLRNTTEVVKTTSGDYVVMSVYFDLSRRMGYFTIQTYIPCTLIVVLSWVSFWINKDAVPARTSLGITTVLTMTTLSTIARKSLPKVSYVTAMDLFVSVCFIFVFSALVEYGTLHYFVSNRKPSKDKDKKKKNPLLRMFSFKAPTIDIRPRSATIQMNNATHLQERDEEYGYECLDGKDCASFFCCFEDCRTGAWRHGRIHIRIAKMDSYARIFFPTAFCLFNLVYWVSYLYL
Sequence (P28472 whole entry): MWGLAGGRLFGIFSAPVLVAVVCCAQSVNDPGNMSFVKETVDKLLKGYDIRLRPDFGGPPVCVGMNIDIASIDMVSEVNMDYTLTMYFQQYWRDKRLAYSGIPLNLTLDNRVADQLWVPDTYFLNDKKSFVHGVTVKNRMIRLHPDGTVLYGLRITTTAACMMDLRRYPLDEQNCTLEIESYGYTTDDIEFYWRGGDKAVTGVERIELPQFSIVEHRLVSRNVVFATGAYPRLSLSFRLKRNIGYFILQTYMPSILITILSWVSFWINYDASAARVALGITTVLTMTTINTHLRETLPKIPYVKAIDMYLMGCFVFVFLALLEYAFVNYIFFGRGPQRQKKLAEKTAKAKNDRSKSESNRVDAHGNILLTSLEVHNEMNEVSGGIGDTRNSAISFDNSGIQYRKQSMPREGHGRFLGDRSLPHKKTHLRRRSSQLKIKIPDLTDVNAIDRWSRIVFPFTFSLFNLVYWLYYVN
Sequence (P47869 whole entry): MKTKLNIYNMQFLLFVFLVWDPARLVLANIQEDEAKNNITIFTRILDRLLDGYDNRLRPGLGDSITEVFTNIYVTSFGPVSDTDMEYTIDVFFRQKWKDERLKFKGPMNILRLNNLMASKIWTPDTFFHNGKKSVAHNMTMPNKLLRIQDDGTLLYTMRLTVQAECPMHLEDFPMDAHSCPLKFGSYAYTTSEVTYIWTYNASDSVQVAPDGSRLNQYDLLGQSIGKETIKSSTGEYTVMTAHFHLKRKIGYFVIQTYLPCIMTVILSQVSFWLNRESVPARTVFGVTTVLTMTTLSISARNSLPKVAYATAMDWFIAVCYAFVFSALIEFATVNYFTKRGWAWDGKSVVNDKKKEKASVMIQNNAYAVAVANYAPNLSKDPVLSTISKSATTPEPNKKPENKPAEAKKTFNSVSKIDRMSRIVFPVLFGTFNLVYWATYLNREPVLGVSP
test-name: Binding affinity for human GABA-A receptor alpha-2-beta-3-gamma-2 subunits in L(tk-) cells
I'd be grateful if you could share measured Ki for these entries.
One number for each entry, in nM.

smiles-representation: CCCc1nnc2c3ccccc3c(OCc3ccccn3)nn12
Ki (nM): 120
--
smiles-representation: c1ccc(Cc2nnc3c4ccccc4c(OCc4ccccn4)nn23)cc1
Ki (nM): 340
--
smiles-representation: c1ccc(-c2nnc3c4ccccc4c(OCc4cccs4)nn23)cc1
Ki (nM): 560

Please give Ki for each item listed below.
1. Clc1ccccc1COc1nn2c(-c3ccccc3)nnc2c2ccccc12
2. c1ccc(-c2nnc3c4ccccc4c(OCCc4ccccn4)nn23)cc1
3. c1ccc(-c2nnc3c4ccccc4c(OCc4cnccn4)nn23)cc1
4. COc1nn2c(-c3ccccc3)nnc2c2ccccc12
5. c1ccc(-c2nnc3c4ccccc4c(OCc4ccco4)nn23)cc1

580
25
1.6
160
270
